test: Kinetic solubility in pH7.4 PBS, FaSSIF and FeSSIF; format: physicochemical; settings: thermodynamic from solid; FaSSIF (pH 6.5, 37° C.), 34 h
Metric: solubility at 34 h (µg/mL)
Kindly answer with a numeric value in µg/mL, unit omitted.

## Task // query solubility at 34 h value for entry CC[C@@H]1CN(C(=O)NCC(F)(F)F)C[C@@H]1c1cnc2cnc3[nH]ccc3n12 [Form CSI]
## Result 4100

---

assay: Kinetic solubility in pH7.4 PBS, FaSSIF and FeSSIF; format: physicochemical; conditions: PBS pH 7.4, aqueous buffer, thermodynamic from solid; pH 7.4 PBS, 25° C., 48 h
Metric: solubility at 48 h (µg/mL)
Kindly answer with a numeric value in µg/mL, unit omitted.

## Task // query solubility at 48 h value for entry CC[C@@H]1CN(C(=O)NCC(F)(F)F)C[C@@H]1c1cnc2cnc3[nH]ccc3n12 [Form CSI]
## Result 660

---

experiment: Kinetic solubility in pH7.4 PBS, FaSSIF and FeSSIF; format: physicochemical; conditions: thermodynamic from solid; FeSSIF (pH 5.0, 37° C.), 34 h
Metric: solubility at 34 h (µg/mL)
Kindly answer with a numeric value in µg/mL, unit omitted.

## Task // query solubility at 34 h value for entry CC[C@@H]1CN(C(=O)NCC(F)(F)F)C[C@@H]1c1cnc2cnc3[nH]ccc3n12 [Form CSI]
## Result 3000

---

test: Kinetic solubility in pH7.4 PBS, FaSSIF and FeSSIF; type: physicochemical; details: thermodynamic from solid; FaSSIF (pH 6.5, 37° C.), 48 h
Metric: solubility at 48 h (µg/mL)
Kindly answer with a numeric value in µg/mL, unit omitted.

## Task // query solubility at 48 h value for entry CC[C@@H]1CN(C(=O)NCC(F)(F)F)C[C@@H]1c1cnc2cnc3[nH]ccc3n12 [Form CSI]
## Result 4100

---

assay: Kinetic solubility in pH7.4 PBS, FaSSIF and FeSSIF; assay type: physicochemical; settings: PBS pH 7.4, aqueous buffer, thermodynamic from solid; pH 7.4 PBS, 25° C., 34 h
Metric: solubility at 34 h (µg/mL)
Kindly answer with a numeric value in µg/mL, unit omitted.

## Task // query solubility at 34 h value for entry CC[C@@H]1CN(C(=O)NCC(F)(F)F)C[C@@H]1c1cnc2cnc3[nH]ccc3n12 [Form CSI]
## Result 710

---

experiment: Kinetic solubility in pH7.4 PBS, FaSSIF and FeSSIF; type: physicochemical; conditions: thermodynamic from solid; FeSSIF (pH 5.0, 37° C.), 48 h
Metric: solubility at 48 h (µg/mL)
Kindly answer with a numeric value in µg/mL, unit omitted.

## Task // query solubility at 48 h value for entry CC[C@@H]1CN(C(=O)NCC(F)(F)F)C[C@@H]1c1cnc2cnc3[nH]ccc3n12 [Form CSI]
## Result 3100
